B1: SLC22A15 (parent)
chain: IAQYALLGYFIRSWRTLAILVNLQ

Variants of: B1
assay.text: protein stability index of a GFP-peptide fusion (GPS, HEK-293T) (PSI 1-6); higher = more stable;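 also: lentivirally expressed fusions sorted by FACS into six bins by GFP to DsRed ratio, PSI derived from sequencing read proportions per bin multiplied by bin number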
condition.parameters: c terminus: a fixed tail appended
Threshold check on protein stability index: at or above 3 gives criterion met, strictly below gives criterion not met.

[
  {
    "variant.string": "R15E",
    "qualitative.label": "criterion not met"
  },
  {
    "variant.string": "S13L",
    "qualitative.label": "criterion met"
  },
  {
    "variant.string": "L7Y",
    "qualitative.label": "criterion not met"
  },
  {
    "variant.string": "W14C",
    "qualitative.label": "criterion met"
  },
  {
    "variant.string": "T16R",
    "qualitative.label": "criterion met"
  },
  {
    "variant.string": "A18N",
    "qualitative.label": "criterion met"
  },
  {
    "variant.string": "L20P",
    "qualitative.label": "criterion met"
  },
  {
    "variant.string": "Q24K",
    "qualitative.label": "criterion met"
  },
  {
    "variant.string": "N22I",
    "qualitative.label": "criterion met"
  },
  {
    "variant.string": "I1N",
    "qualitative.label": "criterion met"
  }
]

Please look at the following variant next.
Exam item: Record "V21Y" ; criterion: protein stability index no lower than 3. Met?
Marked response: criterion not met
